# experimentalTarget: T1, cynomolgus CD47, on CHOK1-cCD47 stable cell line (cynomolgus)
# T1 construct: whole, on cells; check before use; also called CHOK1/cynoCD47; monkey-derived CD47
# assaySummary: FACS CHOK1-cCD47; Ab 0.064 nM
reportedEndpoint: mean fluorescence intensity

binder: 51E2F11 (antibody, V domains shown, Murine hybridoma antibody purified on protein G) VH: EVQLQQSGAELVKPGASVKLSCTASGFNIKDHYIHWMNQRTEQGLEWIGRIDPDDGETRYAPKFRGKATLTADTSSNTAYLQFSSLTSEDTAVYHCTRATTITRDWYFDVWGTGTTVTVSS VL: DIVMTQSQKFMSTSVGDRVSITCKASQNVRTSVAWYQQKPGQSPKALIYLASNRHTGIPDRFTGSGSGTDFTLTIRNVQSEDLADYFCLQHWDYPLTFGAGTKLELK
result: 288

binder: 54G8G6 (antibody, V domains shown, Murine hybridoma antibody purified on protein G) VH: QVQLQQPGADLVKPGASVKMSCKASGYTFTSYWIIWVKQRPGQGLEWIGDINPGRGSPNYNEKFKRKATLTVDTSSSTAYMQLSSLTSEDSAVYYCVRGGLRRFDHWGQGTLVTVSA VL: ENVLTQSPAIMSASPGEKVTMTCRASSSVSSSYLHWYQQKSGASPKLWIYSTSTLASGVPARFSGSGSGTSYSLTISSVEAEDAATYYCQQYSGYPYTFGGGTKLEIK
result: 908

binder: 95E2D10 (antibody, V domains shown, Murine hybridoma antibody purified on protein G) VH: QIQLQQSGPELVKPGASMKISCKASGYPFTDYYIHWVKQKPGQGLEWIGWIYPGSGNNKYNEKFKGKATLTVDTSPSTVYMQLSSLTSEDTAVYFCARRAGNYFDYWGQGTTLTVSS VL: NIVMTQSPKSMSRSVGERVTLSCRASENVRTYVFWYQQKPGLSPKLLIYGASNRYIGVPDRFTGSGSATDFTLTISSVQAEDLADYHCGQSYSYPLTFGAGTKLELK
result: 734

binder: 25E3B5 (antibody, V domains shown, Murine hybridoma antibody purified on protein G) VH: QVQLQQPGTALVRPGSSVKLSCKASGYTFTSYWMHWVRQRPIKGLEWIGNIDPSDSETHYNQRFKDKVTLTVDKSSNTAYMQLSSLTSEDSAVYYCARWKYHGIGAMDYWGQGTSVTVSS VL: DVQITQSPSYLAASPGETVTISCRTNRNISKFLAWYQEKPGKTNKLLIYSGSTLHSGIPSRFSGSGSGTDFTLTISRLEPEDFAMYYCQQHNEYPWSFGGGTKLEIK
result: 1450

binder: 132D1E5 (antibody, V domains shown, Murine hybridoma antibody purified on protein G) VH: QVQLQQPGAELVRPGSSVKLSCKASGYTFTNNWMHWVKQRPLQGLEWIGNIDPSDSETHYNQKFKDKATLTVDKSSTTAYIQLSSLTSEDSAVYYCARWRGGGRGAMDYWGQGTSVTVSS VL: DVQITQSPSYLAASPGETITINCRTSKNISKFLAWYQEKPGKTNKLLIYSGSTLQSGIPSRFSGSGSGTDFTLTISNLEPEDFAMYYCQQHNEYPWTFGRGTKLEIK
result: 689

binder: 4D10B11 (antibody, V domains shown, Murine hybridoma antibody purified on protein G) VH: QVQLQQSGPELVKPGASVKISCKASGYSFTSYYIHWVKQRPGQGLEWIGWIYPGSGNTKYNEKFKGKATLTADTSSSTADMQLSSLTSEDSAVYYCARRGDWYFDVWGTGTTVTVSS VL: DIVMSQSPSSLVVSVGEKVTMNCKSSQSLLFSGNQKSSLAWYQQKPGQSPKLLIYWASTRESGVPDRFTGSGSGTDFTLIISTVKAEDLAVYSCQQYYSYPLTFGAGTKLELK
result: 667

binder: 20H4G5 (antibody, V domains shown, Murine hybridoma antibody purified on protein G) VH: QVQLQQPGAELVRPGSSVRLSCVTSGYTFTSHWMHWVKQGPIKGLEWIGNIDPSDSETHYNQKFKDKATLTVDKSSSTAYMQLSRLTSDDSAVYYCARWRHLGIGAMDYWGQGTSVIVSS VL: DVQITQSPSYLAASPGETITINCRASKNISKFLAWYQAKPGKSNNLLIYSGSTLQSGIPSRFSGSGSGTDFTLTISRLEPEDFAMYYCQQHNEYPWTFGGGTKLEIK
result: 998
